Attribution: paper PMC10828988

Experiment: Concentration-dependent radiolabeling with [203Pb]Pb2+ (iTLC)
Conditions: ligand 10^–4 M, pH = 7, room temperature, 1 h
measuredEndpoint: radiochemical incorporation (RCI) of [^203Pb]Pb^2+

Give radiochemical incorporation (RCI) of [^203Pb]Pb^2+ for the following compound: CSCCN1CCN(CC(=O)O)CCN(CCSC)CCN(CC(=O)O)CC1
> 90%
